experiment notes: Anticancer activity against human MES-SA cells after 72 hrs by Hoechst test
Assay type: functional, cell-based
measured attribute: IC50 (µM)

{"compound": "O=c1c(F)cn(C2CCCO2)c(=O)n1CO (configuration not stated)", "units symbol": "µM", "recorded value": 79}
{"compound": "CCCC(=O)OCn1c(=O)c(F)cn(C2CCCO2)c1=O (configuration not stated)", "units symbol": "µM", "recorded value": 71}

====

experiment notes: Anticancer activity against human astrocytes cells after 72 hrs by Hoechst test
Format: ADME, cell-based, Astrocyte
condition summary: human, human astrocytes

{"compound": "O=c1c(F)cn(C2CCCO2)c(=O)n1CO (centres undefined)", "IC90 at 72 h": "476 µM"}
{"compound": "CCOP(=O)(OCC)OCn1c(=O)c(F)cn(C2CCCO2)c1=O (centres undefined)", "IC90 at 72 h": "2790 µM"}
{"compound": "O=c1[nH]c(=O)n(C2CCCO2)cc1F (centres undefined)", "IC90 at 72 h": "7680 µM"}
{"compound": "CCCC(=O)OCn1c(=O)c(F)cn(C2CCCO2)c1=O (centres undefined)", "IC90 at 72 h": "323 µM"}

All values here come from ChEMBL document CHEMBL1140720.
